system-name: BuChE (Homo sapiens)
Sequence (P06276 29-602): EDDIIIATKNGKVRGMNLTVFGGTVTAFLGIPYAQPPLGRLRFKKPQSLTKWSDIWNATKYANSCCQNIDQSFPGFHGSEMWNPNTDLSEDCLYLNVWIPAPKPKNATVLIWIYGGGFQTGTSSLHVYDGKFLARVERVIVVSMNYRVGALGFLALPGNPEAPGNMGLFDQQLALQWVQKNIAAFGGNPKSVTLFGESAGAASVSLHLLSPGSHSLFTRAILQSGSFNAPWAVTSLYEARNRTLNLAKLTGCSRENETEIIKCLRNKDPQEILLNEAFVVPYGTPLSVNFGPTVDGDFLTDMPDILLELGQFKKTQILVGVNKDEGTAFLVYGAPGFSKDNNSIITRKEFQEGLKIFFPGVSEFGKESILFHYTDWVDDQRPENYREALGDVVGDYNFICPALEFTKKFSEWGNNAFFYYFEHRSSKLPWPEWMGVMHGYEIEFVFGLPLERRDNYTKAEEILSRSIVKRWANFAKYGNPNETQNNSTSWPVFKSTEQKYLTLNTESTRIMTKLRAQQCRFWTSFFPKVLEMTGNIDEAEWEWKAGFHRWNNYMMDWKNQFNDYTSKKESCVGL
protocol-description: Michaelis-Menten constant and maximum reaction velocity measurement (Lineweaver-Burk plot)
Assay type: biochemical
condition-context: room temperature, λ=285 nm, average, N=3
Label yes (1) when Km >= 100 µM; otherwise no (0).

compound: CN1CC[C@@H](OC(=O)c2ccc(C#N)cc2)C1
answer-label: yes (1)
--
compound: CN1CC[C@H](OC(=O)c2ccc(C#N)cc2)C1
answer-label: yes (1)
--
compound: CN1CC[C@H](OC(=O)c2ccc(I)cc2)C1
answer-label: no (0)
--
compound: CN1CCC(OC(=O)c2ccc(I)cc2)CC1 [Example 7, 1′-methylpiperidin-4′-yl 4-iodobenzoate]
answer-label: no (0)
--
compound: CN1CC[C@@H](OC(=O)c2ccc(I)cc2)C1
answer-label: yes (1)
--
compound: CN1CCC(OC(=O)c2ccc(F)cc2)CC1
answer-label: yes (1)
--
compound: CN1CCC(OC(=O)c2ccc(C#N)cc2)CC1 [Example 9, 1′-methylpiperidin-4′-yl 4-cyanobenzoate]
answer-label: no (0)
--
compound: CN1CCC(OC(=O)c2ccccc2)CC1 [Example 10, 1′-methylpiperidin-4′-yl benzoate]
answer-label: no (0)
--
compound: CCCC(=O)SCC[N+](C)(C)C [butyrylthiocholine, reference compound]
answer-label: no (0)
